All values here come from the Bradley open melting point set (2014).

Collected melting point values appear next to each entry.
Field: numeric (°C). Do not append units.

Example compounds with recorded melting point:
CCn1cc(C(=O)O)c(=O)c2ccc(C)nc21 [nalidixic acid]	230
CC(=O)c1ccccc1C(=O)O	117
CC(=O)Nc1ccccc1 [N-Phenylacetamide]	115
O=C(O)Cc1cccc2ccccc12	135
Nc1cccc(Cl)c1C(=O)O	151

Moving on to the next compound.
Tell me melting point reported for CC(C)N [2-aminopropane] -95

* * *

Readings of melting point for the listed compounds
Lab book: enter the figure in °C, no units written.

Consider the worked cases shown below.
C1CCOC1 [tetrahydrofuran]	-108
Cc1cc(C)nc(C)c1	-43

Hello, please tell me recorded melting point for this one: O=C(O)c1ccc(O)cc1 [4-Hydroxybenzoic acid] 216

Report melting point, nothing else, for this compound: CC12CCC(O)CC1CC1(OCCO1)C1C2CCC2(C)C1CCC21OCCO1 (stereo not drawn) 101

Answer with the recorded melting point for the compound listed here: O=C(O)c1ccc([N+](=O)[O-])cc1C(=O)O 163

Specify reported melting point for the compound shown: O=C(OC[C@H]1O[C@@H](OC(=O)c2cc(O)c(O)c(OC(=O)c3cc(O)c(O)c(O)c3)c2)[C@H](OC(=O)c2cc(O)c(O)c(OC(=O)c3cc(O)c(O)c(O)c3)c2)[C@@H](OC(=O)c2cc(O)c(O)c(OC(=O)c3cc(O)c(O)c(O)c3)c2)[C@@H]1OC(=O)c1cc(O)c(O)c(OC(=O)c2cc(O)c(O)c(O)c2)c1)c1cc(O)c(O)c(OC(=O)c2cc(O)c(O)c(O)c2)c1 210

Give a short answer stating reported melting point for c1ccc2c(c1)cc1ccc3cccc4ccc2c1c34 [3,4-benzopyrene] . 179

Read the entry C#CCCCCCCCCCC and write its reported melting point. -19

* * *

recordedEndpoint: melting point
Could you give the number and then its unit, please?

Cc1ccc(N)cc1	44 °C
NCCNCCN	-35 °C

Supply measured melting point of Cc1ccnc(NS(=O)(=O)c2ccc(N)cc2)n1 [sulfamerazine] in your reply. 235 °C

Look up and state reported melting point for CCCCCC=CCC=CCCCCCCCC(=O)O (stereo in doubt) -8.5 °C

Name the recorded melting point of the compound listed here: ON=C1/CCCCC1 [N-Hydroxycyclohexanimine] 90 °C

Indicate its recorded melting point; the compound in question is O=CNC(c1ccccc1)c1ccccc1 [N-(Diphenylmethyl)formamide] 136 °C

Entry Nn1cnnc1 needs its melting point filled in; supply it. 86 °C

Find the measured melting point of Cc1ccc(C#N)cc1 and report it. 29 °C

Return value of melting point for input CCOC(=O)N1C(=O)c2ccccc2C1=O [N-(ethoxycarbonyl)phthalimide] , no commentary. 81 °C

State its melting point: C=CCc1ccc(O)c(OC)c1 -9 °C

# return recorded melting point for input C[Si](C)(C)Br -44 °C

* * *

melting point for assorted molecules

Would you please look over these solved cases?
Cc1cccs1	-63 °C
O=C(O)CCCCCCCCCCC(=O)O	129 °C
CC[C@@H](C(=O)[C@@H](C)[C@@H](O)[C@H](C)[C@@H]1O[C@@H]([C@@H](CC)C(=O)O)CC[C@@H]1C)[C@H]1O[C@]2(C=C[C@@H](O)[C@]3(CC[C@@](C)([C@H]4CC[C@](O)(CC)[C@H](C)O4)O3)O2)[C@H](C)C[C@@H]1C	113 °C
COc1cc(Br)c(/C=C/C(=O)O)cc1OC	255 °C

Let us move to another entry and its melting point.
Give melting point for CC(=O)c1ccc2c(c1)CCCC2 [6-acetyl-1,2,3,4-tetrahydronaphthalene] -21 °C
